molecular target: Human immunodeficiency virus type 1 protease (Human immunodeficiency virus 1, UniProt Q72874); assay: Apparent inhibition constant against recombinant HIV-1 protease
pKi: −log10 of the molar value.
Entries are grouped by pKi into these classes: low value = under 6, medium value = from 6 up to 7, high value = 7 and over

Hello team, could you let me know which band the following compound falls into: CC(=O)c1c[nH]c([C@H](Cc2ccccc2)C[C@H](O)[C@H](Cc2ccccc2)NC(=O)OC(C)(C)C)n1
medium value

Record CC(O)c1cnc([C@H](Cc2ccccc2)C[C@H](O)[C@H](Cc2ccccc2)NC(=O)OC(C)(C)C)[nH]1 (stereo not given in full) — which class?
low value

Exercise: read the entry C=CC(C)(C)C(=O)c1cnc([C@H](Cc2ccccc2)C[C@H](O)[C@H](Cc2ccccc2)NC(=O)OC(C)(C)C)[nH]1 and state which class it falls under.
medium value

Given CC(C)C(O)c1cnc([C@H](Cc2ccccc2)C[C@H](O)[C@H](Cc2ccccc2)NC(=O)OC(C)(C)C)[nH]1 (stereo not given in full) , name the class its pKi places it in.
low value

Please classify: CC(C)(C)OC(=O)N[C@@H](Cc1ccccc1)[C@@H](O)C[C@@H](Cc1ccccc1)c1nc(C=O)c[nH]1
low value

Classify this compound: CC(C)[C@@H](NC(=O)[C@@H](Cc1ccccc1)NCC(O)C(=O)[C@H](Cc1ccccc1)NC(=O)[C@H](C)NC(=O)OCc1ccccc1)C(=O)O (stereo not given in full)
high value
